Below, each entry is listed alongside its reported IC50.
Target or system: Recombinant (1-346) HPK1 (h) (Homo sapiens)
Construct: Recombinant (1-346) HPK1 (h) is incubated with 8 mM MOPS pH 7.0
Sequence (Q92918 1-346): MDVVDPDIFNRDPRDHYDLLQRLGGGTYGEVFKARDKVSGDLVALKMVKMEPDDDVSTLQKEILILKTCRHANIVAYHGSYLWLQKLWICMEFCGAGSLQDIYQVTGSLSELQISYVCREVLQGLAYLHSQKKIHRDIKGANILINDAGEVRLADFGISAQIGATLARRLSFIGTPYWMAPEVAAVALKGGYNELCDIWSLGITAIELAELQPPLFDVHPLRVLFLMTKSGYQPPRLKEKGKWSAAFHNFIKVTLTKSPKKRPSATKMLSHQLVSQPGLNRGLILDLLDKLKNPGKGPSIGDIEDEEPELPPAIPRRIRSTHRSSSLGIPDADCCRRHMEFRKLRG
Assay method text: HPK1 Human STE Kinase Enzymatic Radiometric Assay
Type: biochemical
Conditions used: read-out: HPK1 IC50 nM Range*
Assay metric: IC50

Cc1nc2cc(-c3cc(-c4ccc(N5CCN(CCCC(F)F)CC5)cc4)c(F)nc3N)cc(F)c2c(=O)[nH]1 [I-467] | 0.1 to 10 nM
CC(C)N1C[C@H]2C[C@@]2(c2ccc(-c3cc(-c4ccc5c(c4)CCNC5=O)c(N)nc3F)cc2)C1 [I-110] | 0.1 to 10 nM
Cc1c[nH]c(=O)c2ccc(-c3cc(-c4ccc5c(c4)[C@H](N(C)C)CCO5)c(F)nc3N)cc12 [I-628] | 11 to 100 nM
CC(C)N1C[C@H]2C[C@@]2(c2ccc(-c3cc(-c4cc5c(cc4F)C(=O)NCC5)c(N)nc3F)cc2)C1 [I-141] | 0.1 to 10 nM
CC(C)N1C[C@H]2C[C@@]2(c2ccc(-c3cc(-c4cc(F)c5c(c4)CCNC5=O)c(N)nc3F)cc2)C1 [I-301] | 0.1 to 10 nM
Nc1nc(F)c(-c2ccc(N3CCN(CCCC(F)F)CC3)cn2)cc1-c1ccc2c(c1)CCNC2=O [I-593] | 0.1 to 10 nM
COc1cc(-c2cc(-c3ccc4c(c3)CCNC4=O)c(N)nc2F)ccc1OC1CCN(C(C)=O)CC1 [I-305] | 0.1 to 10 nM
Nc1nc(F)c(-c2ccc(S(=O)(=O)C3CC3)cc2)cc1-c1ccc2c(c1)CCNC2=O [I-63] | 0.1 to 10 nM
Cc1nc2cc(-c3cc(-c4ccc([C@]56C[C@H]5CN(C)C6)cc4)c(F)nc3N)ccc2c(=O)[nH]1 [I-468] | 11 to 100 nM
CC(C)[C@@H]1CN(c2ccc(-c3cnc(N)c(-c4ccc5c(c4)CCNC5=O)c3F)c(F)c2)CCO1 [I-6] | 11 to 100 nM
Nc1nc(F)c(-c2ccc(C3=CCOCC3)cc2C=O)cc1-c1cc2c(cc1F)C(=O)NCC2 [I-514] | 101 to 1000 nM
CC(C)N1CCN(c2ccc(-c3cc(-c4ncc5c(n4)CCNC5=O)c(N)nc3F)cc2)CC1 [I-458] | 0.1 to 10 nM
CC(C)(C)OC(=O)N1CCC2(CC1)CC(=O)c1cc(-c3cc(-c4ccc5c(c4)CCNC5=O)c(N)nc3F)ccc1O2 [I-174] | 11 to 100 nM
CN(C)Cc1cc(-c2cc(-c3ccc4c(=O)[nH]cc(F)c4c3)c(N)nc2F)ccc1N1CCOCC1 [I-480] | 11 to 100 nM
CN(C)Cc1cc(-c2cc(-c3ccc4c(c3)CCNC4=O)c(N)nc2F)ccc1N1CCN(C2CCC2)CC1 [I-461] | 0.1 to 10 nM
CC(C)N1CCN(c2ccc(-c3cc(-c4cnc5c(=O)[nH]ccc5c4)c(N)nc3F)cc2)CC1 [I-402] | 0.1 to 10 nM
